Attribute: pIC50
# Test system: MDA-MB-231
# test description: Cytotoxicity against ERalpha negative human MDA-MB-231 cells
# Assay type: functional, cell-based
Scale for pIC50: -log10 of concentration given in mol/L; no unit attached.

{"columns": ["smiles input", "readout type", "meas value"],
 "data": [
  ["CC(=O)O[C@H]1C(=O)[C@@]2(C)[C@H]([C@H](OC(=O)c3ccccc3)[C@]3(O)C[C@H](OC(=O)[C@H](OC(=O)/C=C/C[C@@H]4C[C@H]5[C@@H]6CCc7cc(O)ccc7[C@H]6CC[C@]5(C)[C@H]4O)[C@@H](NC(=O)c4ccccc4)c4ccccc4)C(C)=C1C3(C)C)[C@]1(OC(C)=O)CO[C@@H]1C[C@@H]2O", "pIC50", 7.66]
]}

Here is the next item to consider.
Prompt: Send back MDA-MB-231 pIC50 of `CC(=O)O[C@H]1C(=O)[C@@]2(C)[C@H]([C@H](OC(=O)c3ccccc3)[C@]3(O)C[C@H](OC(=O)[C@@H](OC(=O)/C=C/C[C@@H]4C[C@H]5[C@@H]6CCc7cc(O)ccc7[C@H]6CC[C@]5(C)[C@H]4O)[C@@H](NC(=O)c4ccccc4)c4ccccc4)C(C)=C1C3(C)C)[C@]1(OC(C)=O)CO[C@@H]1C[C@@H]2O` only.
Completion: 5.66

---

# test description: Half life in DTT buffer assessed as taxol release
# Type: ADME
t1/2: recorded values
Please reply with the bare figure in min and do not write the unit itself.

Below, each entry is followed by its recorded t1/2 result.
{"columns": ["compound", "unit abbreviation", "t1/2"],
 "data": [
  ["CC(=O)O[C@H]1C(=O)[C@@]2(C)[C@H]([C@H](OC(=O)c3ccccc3)[C@]3(O)C[C@H](OC(=O)[C@H](OC(=O)C(C)(C)CCSS[C@@H]4C[C@H](CO)[C@@H](O)[C@H](O)[C@H]4O)[C@@H](NC(=O)c4ccccc4)c4ccccc4)C(C)=C1C3(C)C)[C@]1(OC(C)=O)CO[C@@H]1C[C@@H]2O", "min", 12],
  ["CC(=O)O[C@H]1C(=O)[C@@]2(C)[C@H]([C@H](OC(=O)c3ccccc3)[C@]3(O)C[C@H](OC(=O)[C@H](OC(=O)C(C)(C)CCSSc4ccccn4)[C@@H](NC(=O)c4ccccc4)c4ccccc4)C(C)=C1C3(C)C)[C@]1(OC(C)=O)CO[C@@H]1C[C@@H]2O", "min", 4],
  ["CC(=O)O[C@H]1C(=O)[C@@]2(C)[C@H]([C@H](OC(=O)c3ccccc3)[C@]3(O)C[C@H](OC(=O)[C@H](OC(=O)C(C)(C)CCSSC[C@H](C)C(=O)N4CCC[C@@H]4C(=O)O)[C@@H](NC(=O)c4ccccc4)c4ccccc4)C(C)=C1C3(C)C)[C@]1(OC(C)=O)CO[C@@H]1C[C@@H]2O", "min", 25]
]}

Prompt: Give t1/2 for CC(=O)O[C@H]1C(=O)[C@@]2(C)[C@H]([C@H](OC(=O)c3ccccc3)[C@]3(O)C[C@H](OC(=O)[C@H](OC(=O)C(C)(C)CCSSCC(NC(=O)CCC(N)C(=O)O)C(=O)NCC(=O)O)[C@@H](NC(=O)c4ccccc4)c4ccccc4)C(C)=C1C3(C)C)[C@]1(OC(C)=O)CO[C@@H]1C[C@@H]2O (some centres undefined)
Completion: 60
